All values here come from PubChem BioAssay (NCI).

- Test system: HOP-18 NSCLC
- procedure_text: NCI tumour cell line growth inhibition, 48 h
Give measured TGI for each item. Keep answers brief.

Worked examples follow.
# compound, parameter_measured, result
data = [
    ("NC(=O)C1C(=O)Oc2cccnc21 (stereo unspecified)", "TGI", "> 100 µM"),
    ("CN(C)CN(C)c1nc(N(C)C)nc(N(C)C)n1", "TGI", "> 100 µM"),
    ("Nc1nc2c(ncn2C2OC(CO)C(O)C2O)c(=O)[nH]1 (stereo unspecified)", "TGI", "300 µM"),
    ("O=C(Nc1c(Cl)cc([N+](=O)[O-])cc1Cl)C(=O)C(C(=O)c1ccncc1)C1OC(=O)c2ccccc21 (stereo unspecified)", "TGI", "> 100 µM"),
    ("O=S1(=O)CS(=O)(=O)OCCCCCO1", "TGI", "> 100 µM"),
]

Proceed to the following item.
Lab entry: HOP-18 NSCLC assay, compound O=C([CH-]C(=O)c1ccccc1)c1ccccc1.[CH2-]C.[CH2-]C.[Tl+3] , TGI = > 100 µM
